- test.method.notes: NCI Yeast Anticancer Drug Screen. Data for the rad18 strain (AID 177)
- condition.notes: S. cerevisiae rad18 mutant growth inhibition; at 100.0 µM
This is part of a sample that, as a whole, favours compounds with a hit. Of some 79,000 tested, about 15% had one in any assay. Calls of active or inactive are those of the source. Cut-off read from the data, not from the text of the source: active = growth inhibition above about 70%; inactive = the rest.
Classes used: y (active), n (inactive)

CN(C)c1ccc(C(c2ccc(Cl)cc2)c2ccc(N(C)C)cc2)cc1; y
C=Cc1c(C)c(O)cc2c1-c1ccc(O)c(C)c1CC2; y
CCCCCCCCCC/C=C\CC(=O)O; y
NNc1nnc(-c2ccccc2)nc1Cc1ccccc1; y
O=C(Cc1ccccc1F)NC1=C(Cl)C(=O)c2ccccc2C1=O; n
Cc1ccc(C(C)C)c(C(=C2C=CC(=[N+](C)C)C=C2)c2c(C(C)C)ccc(C)c2O)c1O; y
CC(C)OC(CCC#N)c1ccc(Cl)cc1 (stereo not drawn); n
CCCCOc1ccc(Nc2c3ccccc3nc3ccccc23)cc1; y
CCCCCC(=O)C(C)(c1nc2n(c1O)/C(=N/C(=O)Nc1ccc(Cl)cc1)N=N2)c1nc2n(c1O)/C(=N/C(=O)Nc1ccc(Cl)cc1)N=N2; n
CCCCCCC(CCl)c1sc(-c2csc(CCNC(=O)OC(C)(C)C)n2)nc1C(=O)OC (stereo not drawn); y
CC(=O)c1ccc(NCN2C(=O)c3ccccc3C2=O)cc1; y
CCN(CC)c1ccc(N=Nc2cc(S(=O)(=O)O)ccc2O)c(O)c1; n
COc1ccc(C(=O)OCCc2ccccc2)cc1; n
COc1ccc2nc(N/N=C/c3sccc3C)cc(C)c2c1; y
CN(C)N1C(=O)SCC(c2ccccc2)(c2ccccc2)C1=O; y
CCOc1nc(OCC)nc(-c2cccn2-c2ccccc2)n1; y
O=c1oc(C(C(F)(F)F)C(F)(F)F)nc2ccccc12; n
COc1ccc2cc(CN3CCC(C4CCN(Cc5ccc6cc(OC)ccc6c5)CC4)CC3)ccc2c1; y

###

- test.method.notes: NCI Yeast Anticancer Drug Screen. Data for the sgs1 strain (AID 173);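 note: 0% = growth of vehicle-only control cultures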
- condition.notes: S. cerevisiae sgs1 mutant, at 100.0 µM, active compounds read high
About 79,000 compounds went through this panel and 15% of them were active in at least one assay; those are over-represented in the sample as a whole.
assay.endpoint: growth inhibition (%)

CC[C@@]1(OC(=O)CN(C)C)C(=O)OCc2c1cc1n(c2=O)Cc2cc3ccccc3nc2-1; 96
COc1ccc2c(C)cc(N/N=C/c3sccc3C)nc2c1; 78
O=C(N/N=C/c1ccc2c(c1)CCC2)c1ccccc1[N+](=O)[O-]; 96

###

- test.method.notes: NCI Yeast Anticancer Drug Screen. Data for the rad18 strain (AID 177)
- condition.notes: S. cerevisiae rad18 mutant growth inhibition; at 33.0 µM; active compounds read high
- Method: Growth inhibition of yeast strains with defined genetic alterations is measured as a screen for potential anti-cancer activity. Selected strains with alterations in DNA damage repair or cell cycle control were exposed to compounds and growth inhibition was measured relative to vehicle treated controls. The strain used in this assay is rad18
This is part of a sample that, as a whole, favours compounds with a hit. Of some 79,000 tested, about 15% had one in any assay.
// growth inhibition lookup, one value per entry
assay.endpoint: growth inhibition (%)

CCOc1ccc2ccc3cccnc3c2n1; 60
CCOc1ccccc1N1C(=O)CC(Sc2ccccc2N)C1=O (centres undefined); -13
CSc1ccc2c(c1)C(N1CCN(C)CC1)Cc1ccccc1S2 (centres undefined); 75
C[n+]1c(-c2ccc(NC(=O)c3ccc(C(=O)Nc4ccc(-c5cn6ccccc6[n+]5C)cc4)cc3)cc2)cn2ccccc21; 81
